# system-under-test: Focal adhesion kinase 1 (Homo sapiens)
# assay-procedure: small-molecule microarray binders of FAK, primary screen, biochemical, 635/667 nm fluorescence, BSA, DTT (AID 1130);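 further: composite of spot emission at 667 nm and signal to noise over triplicate slides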
# settings: PTK2 binding, 635 nm fluorescence, higher = more signal

>  <line-notation>
CCCC=C(CCC)[C@@H](NS(=O)(=O)c1cccc(C(F)(F)F)c1)c1ccc(C(=O)OC)cc1

>  <composite z-score>
-0.209

$$$$
>  <line-notation>
CCCC[C@@H]1C[C@H]1[C@@H](NC(=O)c1ccccc1)c1ccccc1C(F)(F)F

>  <composite z-score>
0.826

$$$$
>  <line-notation>
CO[C@H]1COC(=O)[C@@H](C)COC(=O)[C@H](Cc2ccccc2)NC(=O)CC=C[C@H]1C

>  <composite z-score>
-0.62

$$$$
>  <line-notation>
C=CCNC(=O)[C@H]1[C@@H]2C(=O)O[C@@H](c3ccccc3)[C@@H](c3ccccc3)N2[C@@H](c2ccc(O)cc2)[C@]12C(=O)Nc1ccc(C#CCNC(N)=O)cc12

>  <composite z-score>
0.199

$$$$
>  <line-notation>
Cc1ccc(S[C@]2(C(=O)NCCN3CCOCC3)CC(=O)N(C3Cc4ccccc4C3)[C@@H]2c2ccc(CO)cc2I)cc1

>  <composite z-score>
0.355

$$$$
>  <line-notation>
CCCCO[C@H]1C[C@H]2C(Br)=C[C@@]1(CO)C(=O)[C@]21CO1

>  <composite z-score>
0.692

$$$$
>  <line-notation>
[N-]=[N+]=NCc1ccccc1C[C@@]1(C(=O)N2CCOCC2)N=C(c2ccc(OCCCO)cc2)O[C@@H]1c1ccccc1N=[N+]=[N-]

>  <composite z-score>
0.662

$$$$
>  <line-notation>
Cc1ccc(N2C(=O)c3ccccc3[C@@H](C(=O)NCc3ccccc3)[C@@H]2c2ccc(CO)cc2)nc1

>  <composite z-score>
-0.289

$$$$
>  <line-notation>
COc1cc(CO)cc(I)c1O[C@H]1C=C(C(=O)NCCO)C[C@@H](N(CC2CCCCC2)C(=O)c2cc3ccccc3oc2=O)[C@@H]1O

>  <composite z-score>
-0.071

$$$$
